The reader will find reported inhibition values listed item by item below.
Assay system: Serine hydrolase RBBP9 (Homo sapiens)
Protocol text: RBBP9 serine hydrolase blockers re-tested – biochemical, fluorescence polarization, FP-Rh probe, triplicate, confirmation (AID 1537);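 note: 0% = RBBP9 with DMSO and 100% = wells lacking RBBP9 protein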
Details: recombinant RBBP9, FP-Rh probe fluorescence polarization; at 7.94 µM; hits give high values
The list shows a part of the results.
Field format: number, assumed %, no unit text.

Known inhibition results, listed for orientation:
- Compound: "C=CS(=O)c1sc(Cl)c(N2CCOCC2)c1[N+](=O)[O-] (stereo unspecified)"
  inhibition / %: 34.7
- Compound: "CCN(CC)C(=O)N1CCN(C(=O)c2ccc(C)cn2)CC1"
  inhibition / %: 9.27
- Compound: "O=c1[nH]n(-c2ccc([N+](=O)[O-])cc2)c(=O)c2ccccc12"
  inhibition / %: 20.4

Consider the additional compound presented here.
*Q* Which inhibition reading was recorded for the compound `COCCN(Cc1nc(-c2ccc(C(F)(F)F)cc2)no1)C(C)C` ?
*A* 1.94
